src = ChEMBL document CHEMBL5247680

Tested on: Staphylococcus aureus
Measurement Protocol: Antibacterial activity against Methicillin-sensitive Staphylococcus aureus ATCC 29213 assessed as bacterial growth inhibition incubated for 20 to 24 hrs by microbroth serial dilution assay
Test Readout: MIC (µg/mL)
Please state the figure in µg/mL; there is no need to write the unit.

Q) Supply MIC measured with Staphylococcus aureus for C=C[C@]1(C)C[C@@H](OC(=O)CSc2nc(NC(=O)CN3CCCC3)nc3[nH]cnc23)[C@@]2(C)C3C(=O)CC[C@@]3(CC[C@H]2C)[C@@H](C)[C@@H]1O (stereo partly drawn) .
A) 2

Q) Please indicate recorded MIC of C=C[C@]1(C)C[C@@H](OC(=O)CSc2nc(NC(=O)CNC3CCOCC3)nc3[nH]cnc23)[C@@]2(C)C3C(=O)CC[C@@]3(CC[C@H]2C)[C@@H](C)[C@@H]1O (stereo partly drawn) measured with Staphylococcus aureus.
A) 8

Q) Tell me its MIC on Staphylococcus aureus: C=C[C@]1(C)C[C@@H](OC(=O)CSc2nc(N)nc3c2ncn3C(=O)NCc2ccccc2)[C@@]2(C)C3C(=O)CC[C@@]3(CC[C@H]2C)[C@@H](C)[C@@H]1O (stereo partly drawn)
A) 0.0625

---

System: Staphylococcus aureus
Measurement Protocol: Antibacterial activity against Staphylococcus aureus ATCC 25923 assessed as bacterial growth inhibition incubated for 20 to 24 hrs by microbroth serial dilution assay
Assay type: functional
Measurement Conditions: time 20-24 hrs
I'd be grateful if you could share measured MIC for these entries.
Provide the reading as a plain figure in µg/mL.

Q) Provide only the value of recorded MIC for C=C[C@]1(C)C[C@@H](OC(=O)CSc2nc(NC(=O)CN3CCOCC3)nc3[nH]cnc23)[C@@]2(C)C3C(=O)CC[C@@]3(CC[C@H]2C)[C@@H](C)[C@@H]1O (stereo partly specified)
A) 0.5

Q) Identify MIC associated with the compound C=C[C@]1(C)C[C@@H](OC(=O)CSc2nc(NC(=O)CNC3CCOCC3)nc3[nH]cnc23)[C@@]2(C)C3C(=O)CC[C@@]3(CC[C@H]2C)[C@@H](C)[C@@H]1O (stereo partly specified)
A) 0.5

Q) Kindly indicate its recorded MIC. Item: C=C[C@]1(C)C[C@@H](OC(=O)CSc2nc(NC(=O)CN3CCC(O)CC3)nc3[nH]cnc23)[C@@]2(C)C3C(=O)CC[C@@]3(CC[C@H]2C)[C@@H](C)[C@@H]1O (stereo partly specified)
A) 16

Q) Please give measured MIC of the following entry: C=C[C@]1(C)C[C@@H](OC(=O)CSc2nc(N)nc3c2ncn3C(=O)NCc2ccc([N+](=O)[O-])cc2)[C@@]2(C)C3C(=O)CC[C@@]3(CC[C@H]2C)[C@@H](C)[C@@H]1O (stereo partly specified)
A) 0.125

Q) Tell me MIC reported for C=C[C@]1(C)C[C@@H](OC(=O)CSc2nc(N)nc3c2ncn3C(=O)OC)[C@@]2(C)C3C(=O)CC[C@@]3(CC[C@H]2C)[C@@H](C)[C@@H]1O (stereo partly specified)
A) 0.125

Q) Tell me MIC reported for C=C[C@]1(C)C[C@@H](OC(=O)CSc2nc(N)nc3c2ncn3C(=O)OCC)[C@@]2(C)C3C(=O)CC[C@@]3(CC[C@H]2C)[C@@H](C)[C@@H]1O (stereo partly specified)
A) 0.25

---

Tested on: Staphylococcus aureus
Measurement Protocol: Selectivity ratio of MBC for antibacterial activity against Methicillin-resistant Staphylococcus aureus ATCC 33591 to MIC for antibacterial activity against Methicillin-resistant Staphylococcus aureus ATCC 33591
Type: functional
Assign Ratio to each entry below.
Just the number, please.

Q) Quick one: give measured Ratio for C=C[C@]1(C)C[C@@H](OC(=O)CSc2nc(N)nc3c2ncn3C(=O)NCc2cccc(OC)c2)[C@@]2(C)C3C(=O)CC[C@@]3(CC[C@H]2C)[C@@H](C)[C@@H]1O (stereo partly drawn)
A) 4

Q) Note Ratio for the molecule shown: C=C[C@]1(C)C[C@@H](OC(=O)CSc2nc(NC(=O)CN3CCCC3)nc3[nH]cnc23)[C@@]2(C)C3C(=O)CC[C@@]3(CC[C@H]2C)[C@@H](C)[C@@H]1O (stereo partly drawn)
A) 4
